The measured values listed here are drawn from patent US20150094294A1.

test system: P. falciparum 3D7 (chloroquine-sensitive); experiment: Anti-malarial activity, P. falciparum 3D7 culture, 72 hour, DNA content by flow cytometry; assay type: cell-based; details: synchronized ring-stage parasites
pIC50: −log10 of the molar value.
Decision: pIC50 >= 7 yields 1, all other cases yield 0.

> print(dat)
                         chemical.structure                                    system  discrete.label
1     c1cc2sc3ccc(N4CCNCC4)cc3c2cc1N1CCNCC1  P. falciparum 3D7 (chloroquine-sensitive)               0
2  N=C(N)NCCCCC(=O)Nc1cc(F)cc(NC(=O)c2cc(C(=O)Nc3cc(F)cc(NC(=O)CCCCNC(=N)N)c3SCCN)ncn2)c1SCCN  P. falciparum 3D7 (chloroquine-sensitive)               0
3  N=C(N)NCCc1ccccc1-c1ccc(-c2ccccc2CCNC(=N)N)s1  P. falciparum 3D7 (chloroquine-sensitive)               1

----------
system: 3T3 cells; assay: Cytotoxicity against 3T3 cells; assay type: cell-based
measurement.name: EC50

> print(dat)
                         chemical.structure  measurement.name  test.result
1  N=C(N)NCCCOc1cccc(-c2ccc(-c3cccc(OCCCNC(=N)N)c3)s2)c1              EC50        20 µM
2  CCn1c2ccc(N3CCC(N(C)C)CC3)cc2c2cc(N3CCC(N(C)C)CC3)ccc21              EC50    > 1000 µM
3  Cn1c(-c2ccc(CCCN)cc2)cnc1-c1ccc(CCCN)cc1              EC50    > 1000 µM

----------
assay: Cytotoxicity against 3T3 cells; type: cell-based; details: mouse, 3T3 cells; read-out: Cytotoxicity 3T3 EC50
pEC50: −log10 of the molar value.
measurement.name: pEC50

> print(dat)
                         chemical.structure  measurement.name  test.result
1  N=C(N)NCCC#Cc1cncc(-c2cccc(-c3cncc(C#CCCNC(=N)N)c3)c2)c1             pEC50         3.57
2  N=C(N)N1CC=C(c2ccc(NC(=O)c3cc(C(=O)Nc4ccc(C5=CCN(C(=N)N)CC5)cc4)ncn3)cc2)CC1             pEC50         3.04
3  N=C(N)NCCCCC(=O)Nc1cccc(NC(=O)c2cc(C(=O)Nc3cccc(NC(=O)CCCCNC(=N)N)c3SCCN)ncn2)c1SCCN             pEC50         3.16
4  N=C(N)NCCSc1nc(-c2cccc(CCNC(=N)N)c2)cc(-c2cccc(CCNC(=N)N)c2)n1             pEC50         3.12
5  NCc1ccc(C(F)(F)F)c(Oc2ccc(S(=O)(=O)c3ccc(Oc4cc(CN)ccc4C(F)(F)F)cc3)cc2)c1             pEC50         4.60
6  CC(=O)Nc1cc(C(F)(F)F)cc(NC(=O)c2cc(C(=O)Nc3cc(C(F)(F)F)cc(N)c3SCCN)ncn2)c1SCCN             pEC50         4.82
7  N=C(N)NCCCCCC(=O)Nc1cccc(-c2cc(-c3ccc(NC(=O)CCCCNC(=N)N)cc3)nc(-c3ccccc3)n2)c1             pEC50         4.44
